The binders listed here are annotated with their IC50.
tested on: human α4β7 integrin on cells (human) (UniProt P13612)
measurement description: RPMI8866 adhesion to MAdCAM-1
Bridge positions count the residues as written; N and C are the ends. Square brackets hold non-standard residues; d marks the D form. 2Nal = N[C@@H](Cc1ccc2ccccc2c1)C(=O)O; NMeR = CN[C@@H](CCCNC(=N)N)C(=O)O; Cit = NC(=O)NCCC[C@H](N)C(=O)O; Pen = CC(C)(S)[C@H](N)C(=O)O

Ac-[Pen][NMeR]SDTL[Pen]W[Cit][dK]-NH2 (disulfide 1-7; also: dimer (monomer)2-DIG, DIG attachment place not given here) [SEQ ID NO: 84] : > 10 nM

Could you now consider this next binder?
Request: Please report the measured IC50 for Ac-[Pen][NMeR]SDTL[Pen][2Nal][dT][dK]-NH2 (disulfide 1-7 (inferred); also: dimer via DIG linker) [SEQ ID NO: 140]
Result: > 10 nM
